This collection of values is drawn from patent US20220372138A1.

Target: T1, human IGSF11 (VSIG3) ECD, His-tagged (human, UniProt Q5DX21 23-241)
T1 construct: in part bought (SinoBiological 13094-H08H); also called HIS-IGSF11; IGSF11-HIS; not shown: His tag
T1 sequence: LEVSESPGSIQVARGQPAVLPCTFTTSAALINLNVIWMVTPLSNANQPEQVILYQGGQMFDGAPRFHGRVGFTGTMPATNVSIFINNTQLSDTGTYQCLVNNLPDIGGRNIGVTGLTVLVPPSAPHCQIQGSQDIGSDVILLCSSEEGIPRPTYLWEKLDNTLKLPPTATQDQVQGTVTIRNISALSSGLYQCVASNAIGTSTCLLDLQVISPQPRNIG
Assay: IgG1 ELISA EC50 0.02-0.05 nM
pEC50: −log10 of the molar value.

binder	pEC50
A-012 (IgG1 format) (antibody, V domains shown, human IgG1 format) VH: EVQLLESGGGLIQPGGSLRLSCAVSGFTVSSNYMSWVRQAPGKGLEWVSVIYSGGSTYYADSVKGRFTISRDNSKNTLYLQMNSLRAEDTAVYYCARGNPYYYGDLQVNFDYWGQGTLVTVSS VL: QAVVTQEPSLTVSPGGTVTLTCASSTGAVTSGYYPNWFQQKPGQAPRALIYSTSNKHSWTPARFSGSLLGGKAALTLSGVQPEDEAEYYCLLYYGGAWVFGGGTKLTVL	10.30 to 10.70
